# Tested on: mAb3C9
# MEASUREMENT PROTOCOL: mimotope-based dcELISA (mAb3C9 and M20-GST-BAD/SA-HRP competitor)
# Format: binding, mouse
# MEASUREMENT SETUP: mAb3C9, M20-GST-BAD
METRIC NAME: LOD (IC10) (µg/mL)
Unit µg/mL implied. Number only.

IN: Quick one: LOD (IC10) for COP(=S)(OC)Oc1cc(Cl)c(Br)cc1Cl ?
OUT: 0.0194

IN: Quick one: LOD (IC10) for COP(=S)(OC)Oc1ccc([N+](=O)[O-])cc1 ?
OUT: 0.0009

IN: Quick one: LOD (IC10) for COP(=S)(OC)Oc1c(Cl)cc(C)cc1Cl ?
OUT: 0.0017

IN: Quick one: LOD (IC10) for COP(=S)(OC)Oc1ccc(C#N)cc1 ?
OUT: 0.0007

IN: Quick one: LOD (IC10) for CCOP(=S)(OCC)Oc1cc(C)nc(C(C)C)n1 ?
OUT: 0.4123

IN: Quick one: LOD (IC10) for COP(=S)(OC)Oc1cc(Cl)c(Cl)cc1Cl ?
OUT: 0.0093

IN: Quick one: LOD (IC10) for COP(=S)(OC)Oc1ccc(S(=O)(=O)N(C)C)cc1 ?
OUT: 0.0004

IN: Quick one: LOD (IC10) for COP(=O)(OC)OC=C(Cl)Cl ?
OUT: 0.0312

IN: Quick one: LOD (IC10) for COP(=S)(OC)Oc1ccc([N+](=O)[O-])c(C)c1 ?
OUT: 0.0012

IN: Quick one: LOD (IC10) for COP(=O)(OC)Oc1ccc([N+](=O)[O-])cc1 ?
OUT: 0.0632

IN: Quick one: LOD (IC10) for CNC(=O)/C=C(\C)OP(=O)(OC)OC ?
OUT: 0.0616

IN: Quick one: LOD (IC10) for CCOP(=S)(OCC)O/N=C(\C#N)c1ccccc1 ?
OUT: 0.4336

IN: Quick one: LOD (IC10) for COP(=O)(OC)O/C(=C\Cl)c1cc(Cl)c(Cl)cc1Cl ?
OUT: 0.0112

IN: Quick one: LOD (IC10) for CCOP(=S)(OCC)SCn1nnc2ccccc2c1=O ?
OUT: 0.0264

IN: Quick one: LOD (IC10) for COP(=S)(OC)Oc1nc(Cl)c(Cl)cc1Cl ?
OUT: 0.0009

IN: Quick one: LOD (IC10) for COP(=S)(OC)Oc1ccc(SC)c(C)c1 ?
OUT: 0.0044

IN: Quick one: LOD (IC10) for CCOP(=S)(OCC)Oc1cnc2ccccc2n1 ?
OUT: 0.5318

IN: Quick one: LOD (IC10) for CCN(CC)c1nc(C)cc(OP(=S)(OC)OC)n1 ?
OUT: 0.0222

IN: Quick one: LOD (IC10) for COP(=S)(OC)SCN1C(=O)c2ccccc2C1=O ?
OUT: 0.0003

IN: Quick one: LOD (IC10) for COc1nn(CSP(=S)(OC)OC)c(=O)s1 ?
OUT: 0.0006

IN: Quick one: LOD (IC10) for COP(=S)(OC)SCn1nnc2ccccc2c1=O ?
OUT: 0.0004

IN: Quick one: LOD (IC10) for CCOP(=S)(OCC)Oc1ccc([N+](=O)[O-])cc1 ?
OUT: 0.4392
